Data provenance: ChEMBL document CHEMBL5506038

- assay_info: AUC (0 to infinity) in Sprague-Dawley rat at 2 mg/kg, iv by LC-MS/MS analysis
- Type: ADME, organism-based
- measurement_conditions: in vivo
measured_metric: AUC(0-inf) (ng·h/mL)

>>> observed_measurement("COc1cc(N2CCN(C(=O)CCOCC#Cc3ccc4c(c3)C(=O)N(C3CCC(=O)NC3=O)C4=O)CC2)ccc1NC(=O)c1cccc(-c2ccn[nH]2)n1 (stereo unspecified)")
1330

====

- assay_info: AUC (0 to infinity) in Sprague-Dawley rat at 20 mg/kg, po by LC-MS/MS analysis
- Type: ADME, organism-based
- measurement_conditions: in vivo
measured_metric: AUC(0-inf) (ng·h/mL)

>>> observed_measurement("COc1cc(N2CCN(C(=O)CCOCC#Cc3ccc4c(c3)C(=O)N(C3CCC(=O)NC3=O)C4=O)CC2)ccc1NC(=O)c1cccc(-c2ccn[nH]2)n1 (stereo unspecified)")
1080
